Kindly state CC50 for each of the entries shown.
Experiment: in vitro
Details: African green monkey
One number for each entry, in µM.

- compound: "COc1cc(NC(C(=O)N2CCc3cc(OC)c(C(F)(F)F)cc32)c2ccc(Cl)cc2OC)cc(OCCCC(=O)O)c1 (single isomer, unassigned) [Compound 7A]"
  outcome measure: "CC50"
  numeric result: 12
- compound: "COc1cc(NC(C(=O)N2CCc3cc(OC)c(C(F)(F)F)cc32)c2ccc(Cl)cc2OC)cc(OCCCC(=O)O)c1 (racemic) [Compound 7]"
  outcome measure: "CC50"
  numeric result: 12

Value sought for every listed compound: CC50.
1. COc1cc(NC(C(=O)N2CCc3ccc(OC(F)(F)F)cc32)c2ccc(Cl)cc2)cc(OCCCC(=O)O)c1 (racemic) [Compound 4]
2. COc1cc(NC(C(=O)N2CCc3ccc(C(F)(F)F)cc32)c2ccc(Cl)cc2F)cc(OCCCC(=O)O)c1 (single isomer, unassigned) [Compound 9A]
3. COc1cc(NC(C(=O)N2CCc3ccc(C(F)(F)F)cc32)c2ccc(Cl)cc2F)cc(OCCCC(=O)O)c1 (racemic) [Compound 9]
4. COc1cc(NC(C(=O)N2CCc3ccc(OC(F)(F)F)cc32)c2ccc(F)cc2)cc(OCCCC(=O)O)c1 (single isomer, unassigned) [Compound 2A]
5. COc1cc(NC(C(=O)N2CCc3cc(OC)c(C(F)(F)F)cc32)c2ccc(Cl)cc2F)cc(OCCCC(=O)O)c1 (single isomer, unassigned) [Compound 11A]

Response:
1. 10
2. 12
3. 11
4. 14
5. 12

###

Assay: in vitro
Conditions: African green monkey
Kindly state CC50 for each of the entries shown.

Worked examples follow.
- molecule: "COc1cc(NC(C(=O)N2CCc3ccc(C(F)(F)F)cc32)c2ccc(F)cc2)cc(OCCCC(=O)O)c1 (single isomer, unassigned) [Compound 1A]"
  CC50: "> 25 µM"
- molecule: "COc1cc(NC(C(=O)N2CCc3ccc(C(F)(F)F)cc32)c2ccc(Cl)cc2)cc(OCCCC(=O)O)c1 (racemic) [Compound 3]"
  CC50: "13 µM"
- molecule: "COc1cc(NC(C(=O)N2CCc3cc(OC)c(OC(F)(F)F)cc32)c2ccc(Cl)cc2)cc(OCCCC(=O)O)c1 (single isomer, unassigned) [Compound 12A]"
  CC50: "12 µM"
- molecule: "COc1cc(NC(C(=O)N2CCc3cc(OC)c(C(F)(F)F)cc32)c2ccc(Cl)cc2)cc(OCCCC(=O)O)c1 (single isomer, unassigned) [Compound 5A]"
  CC50: "12 µM"
- molecule: "COc1cc(NC(C(=O)N2CCc3ccc(C(F)(F)F)cc32)c2ccc(Cl)cc2OC)cc(OCCCC(=O)O)c1 (racemic) [Compound 6]"
  CC50: "12 µM"

Prompt: Quick one: CC50 of COc1cc(NC(C(=O)N2CCc3cc(OC)c(C(F)(F)F)cc32)c2ccc(Cl)cc2F)cc(OCCCC(=O)O)c1 (racemic) [Compound 11] ?
Response: 11 µM

###

Where a name gives a salt, the structure may show the parent alone.
outcome measure: melting point
Answer format: value, then unit.

Value sought for every listed molecule: melting point.
1. COc1cc(NC(C(=O)N2CCc3cc(OC)c(C(F)(F)F)cc32)c2ccc(Cl)cc2)cc(OCCCC(=O)O)c1 (racemic) (as salt: HCl)
2. COc1cc(NC(C(=O)N2CCc3cc(OC)c(C(F)(F)F)cc32)c2ccc(Cl)cc2F)cc(OCCCC(=O)O)c1 (racemic) (as salt: HCl)
3. COc1cc(NC(C(=O)N2CCc3ccc(OC(F)(F)F)cc32)c2ccc(Cl)cc2OC)cc(OCCCC(=O)O)c1 (racemic) (as salt: HCl)
4. COc1cc(NC(C(=O)N2CCc3cc(OC)c(C(F)(F)F)cc32)c2ccc(Cl)cc2OC)cc(OCCCC(=O)O)c1 (racemic) (as salt: HCl)
5. COc1cc(NC(C(=O)N2CCc3ccc(C(F)(F)F)cc32)c2ccc(Cl)cc2)cc(OCCCC(=O)O)c1 (racemic)
6. COc1cc(NC(C(=O)N2CCc3ccc(C(F)(F)F)cc32)c2ccc(Cl)cc2F)cc(OCCCC(=O)O)c1 (racemic) (as salt: HCl)

Response:
130 °C
121 °C
139 °C
160 °C
192 °C
110 °C

Value sought for every listed molecule: melting point.
1. COc1cc(NC(C(=O)N2CCc3ccc(OC(F)(F)F)cc32)c2ccc(F)cc2)cc(OCCCC(=O)O)c1 (racemic) (as salt: HCl)
2. COc1cc(NC(C(=O)N2CCc3ccc(C(F)(F)F)cc32)c2ccc(Cl)cc2OC)cc(OCCCC(=O)O)c1 (racemic) (as salt: HCl)

Response:
136 °C
178 °C
